// values below are reported inhibition
System Under Test: Lethal factor (Bacillus anthracis)
Test: Lethal factor protease inhibitors, Bacillus anthracis, multiplex microsphere cleavage assay, validation set (AID 588461)
Measurement Setup: flow cytometry, at 10 µM, stronger effect = higher value
Respond with the bare value in %.

Here are 3 molecules together with their reported answers.
1) CCC(CO)NCCNC(CC)CO (centres undefined): -0.2
2) COc1ccc2[nH]cc(CCNC(=O)C3CCCNC3=O)c2c1 (centres undefined): -5.3
3) CC(NC(=O)c1ccc(N2CCNCC2)c([N+](=O)[O-])c1)C12CC3CC(CC(C3)C1)C2 (centres undefined): -5.2

inhibition reported for this molecule CC(C)CC12CN3CCN(CC(C3)C1O)C2 (centres undefined) : -4.5
